Please respond with reported IC50 (µg/ml) with constrains for every item in the list.
measured on: HIV Env of isolate X1193_C1 (clade G) (HIV)
assay name: cell-based or functional assay
One number for each entry, in µg/mL.

Examples with answers:
[
  {
    "binder": "ePGDM9 (antibody, V domains shown) VH: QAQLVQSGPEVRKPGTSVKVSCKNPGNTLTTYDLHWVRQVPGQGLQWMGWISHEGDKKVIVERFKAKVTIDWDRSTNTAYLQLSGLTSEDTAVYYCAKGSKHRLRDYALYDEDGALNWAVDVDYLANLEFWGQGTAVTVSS VL: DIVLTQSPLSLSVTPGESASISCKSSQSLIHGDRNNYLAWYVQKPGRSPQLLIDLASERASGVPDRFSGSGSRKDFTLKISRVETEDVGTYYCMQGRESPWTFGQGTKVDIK",
    "measured parameter": "IC50 (µg/ml) with constrains",
    "observed measurement": 0.039
  },
  {
    "binder": "ePGDM13 (antibody, V domains shown) VH: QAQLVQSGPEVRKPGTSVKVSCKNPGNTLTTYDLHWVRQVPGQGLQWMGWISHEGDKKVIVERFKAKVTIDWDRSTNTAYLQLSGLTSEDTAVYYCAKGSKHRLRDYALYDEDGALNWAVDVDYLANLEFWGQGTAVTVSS VL: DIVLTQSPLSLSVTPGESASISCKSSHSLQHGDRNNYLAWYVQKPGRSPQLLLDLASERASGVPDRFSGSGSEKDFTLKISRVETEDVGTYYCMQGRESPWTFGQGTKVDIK",
    "measured parameter": "IC50 (µg/ml) with constrains",
    "observed measurement": 0.095
  },
  {
    "binder": "ePGDM5 (antibody, V domains shown) VH: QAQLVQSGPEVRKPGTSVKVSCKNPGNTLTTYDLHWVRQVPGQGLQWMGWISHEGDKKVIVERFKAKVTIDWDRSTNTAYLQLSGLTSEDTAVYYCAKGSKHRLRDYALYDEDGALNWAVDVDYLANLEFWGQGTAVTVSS VL: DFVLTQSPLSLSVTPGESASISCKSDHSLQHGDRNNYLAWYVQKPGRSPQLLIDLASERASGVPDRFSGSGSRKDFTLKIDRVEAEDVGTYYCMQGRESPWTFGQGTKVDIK",
    "measured parameter": "IC50 (µg/ml) with constrains",
    "observed measurement": 0.039
  }
]

Now let's try a different one.
Entry under test: PGDM1400 (antibody, V domains shown) VH: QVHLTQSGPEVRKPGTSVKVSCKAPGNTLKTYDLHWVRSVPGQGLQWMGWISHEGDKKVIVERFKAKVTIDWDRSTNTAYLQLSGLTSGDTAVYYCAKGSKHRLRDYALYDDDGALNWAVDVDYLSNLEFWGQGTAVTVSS VL: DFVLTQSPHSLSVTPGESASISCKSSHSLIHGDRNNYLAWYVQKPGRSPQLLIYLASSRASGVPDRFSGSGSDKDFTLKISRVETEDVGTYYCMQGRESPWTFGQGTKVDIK . Its IC50 (µg/ml) with constrains was 0.094
